Where do these numbers come from? They come from ChEMBL document CHEMBL3864171.

- assay-target: RAF proto-oncogene serine/threonine-protein kinase (Homo sapiens)
- Sequence (P04049 whole entry, the tested form may be a part): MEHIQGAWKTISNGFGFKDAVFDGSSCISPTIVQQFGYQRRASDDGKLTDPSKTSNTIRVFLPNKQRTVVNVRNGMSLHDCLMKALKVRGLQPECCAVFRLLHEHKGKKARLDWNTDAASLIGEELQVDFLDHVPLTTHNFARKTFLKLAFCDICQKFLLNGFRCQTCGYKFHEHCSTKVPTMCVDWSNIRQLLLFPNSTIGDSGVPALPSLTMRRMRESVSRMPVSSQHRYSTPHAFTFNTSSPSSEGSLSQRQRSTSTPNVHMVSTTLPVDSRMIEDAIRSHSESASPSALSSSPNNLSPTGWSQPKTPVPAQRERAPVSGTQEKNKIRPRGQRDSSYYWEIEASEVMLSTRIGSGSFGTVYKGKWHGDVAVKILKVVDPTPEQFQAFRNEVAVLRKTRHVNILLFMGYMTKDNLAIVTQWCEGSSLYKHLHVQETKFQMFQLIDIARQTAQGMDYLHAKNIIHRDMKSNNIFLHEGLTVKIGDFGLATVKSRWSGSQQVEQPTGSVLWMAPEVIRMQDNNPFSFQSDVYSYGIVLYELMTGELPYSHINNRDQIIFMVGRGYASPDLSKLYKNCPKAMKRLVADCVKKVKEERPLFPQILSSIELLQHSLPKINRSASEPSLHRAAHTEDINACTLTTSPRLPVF
- measurement-description: Inhibition of 1 to 324 residues truncated c-Raf (unknown origin) expressed in baculovirus infected Sf9 insect cells using full length biotinylated MEK1 ATP binding site K97R mutant as substrate preincubated for 60 mins followed by ATP addition measured after 1 hr by alpha screen assay
Here the recorded IC50 is given for each entry.

[
  {
    "molecule": "Cc1ccc(NC(=O)c2ccnc(C(F)(F)F)c2)cc1-c1cc(OCCOP(=O)(O)O)nc(N2CCOCC2)c1",
    "unit-symbol": "nM",
    "IC50": 0.1
  },
  {
    "molecule": "Cc1ccc(NC(=O)c2cc(C(F)(F)F)ccn2)cc1-c1cc(OCC(O)CP(=O)(O)O)nc(N2CCOCC2)c1 (stereo unspecified)",
    "unit-symbol": "nM",
    "IC50": 0.024
  },
  {
    "molecule": "Cc1ccc(NC(=O)c2ccnc(C(F)(F)F)c2)cc1-c1cnc(OCCOP(=O)(O)O)c(N2CCOCC2)c1",
    "unit-symbol": "nM",
    "IC50": 0.03
  },
  {
    "molecule": "Cc1ccc(NC(=O)c2ccnc(C(C)(F)F)c2)cc1-c1cc(OCCOP(=O)(O)O)nc(N2CCOC[C@H]2C)c1",
    "unit-symbol": "nM",
    "IC50": 0.1
  },
  {
    "molecule": "Cc1ccc(NC(=O)c2ccnc(C(F)(F)F)c2)cc1-c1cc(OCCOP(=O)(O)O)nc(N2CCOC[C@H]2C)c1",
    "unit-symbol": "nM",
    "IC50": 2
  },
  {
    "molecule": "Cc1ccc(NC(=O)c2cccc(C(F)(F)F)c2)cc1-c1cc(OCCOP(=O)(O)O)nc(N2CCOC[C@H]2C)c1",
    "unit-symbol": "nM",
    "IC50": 6
  }
]
